- System Tested: T1, recombinant LILRB2 ECD (human, UniProt Q8N423 22-460)
- T1 construct: also called biotinylated LILRB2 ECD
- T1 sequence (Q8N423 22-460 limits assumed): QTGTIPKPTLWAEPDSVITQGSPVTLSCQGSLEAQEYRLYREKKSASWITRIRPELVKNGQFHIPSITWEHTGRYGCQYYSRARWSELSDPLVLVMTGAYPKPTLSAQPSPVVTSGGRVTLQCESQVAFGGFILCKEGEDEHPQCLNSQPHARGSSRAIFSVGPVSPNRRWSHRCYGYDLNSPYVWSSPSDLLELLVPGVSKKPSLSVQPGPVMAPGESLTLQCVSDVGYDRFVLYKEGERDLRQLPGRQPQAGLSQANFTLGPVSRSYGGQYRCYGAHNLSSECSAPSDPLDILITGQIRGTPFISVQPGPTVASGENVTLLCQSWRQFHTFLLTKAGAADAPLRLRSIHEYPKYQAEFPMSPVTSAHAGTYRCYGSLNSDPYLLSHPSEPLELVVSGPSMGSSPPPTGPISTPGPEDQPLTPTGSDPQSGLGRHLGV
- Procedure Summary: ELISA, LILRB2 ECD binding to HLA-G-Fc
Below is a list of entries, each paired with its recorded IC50 value.

{"Binder": "A-010 (antibody, V domains shown) VH: QVQLVQSGAEVKKPGSSVKVSCKASGGTFQSQAFAWVRQAPGQGLEWMGSIIPGFSTANYAQKFQGRVTITADESTSTAYMELSSLRSEDTAVYYCAKDLGTYSSGWPYYYGMDVWGQGTTVTVSS VL: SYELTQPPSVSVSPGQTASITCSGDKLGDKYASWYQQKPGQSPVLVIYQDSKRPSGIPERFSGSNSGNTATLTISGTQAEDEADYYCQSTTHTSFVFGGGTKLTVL", "IC50": "3.7 nM"}
{"Binder": "A-028 (antibody, V domains shown, tested as IgG) VH: QVQLVQSGAEVKKPGSSVKVSCKASGYSFSEHAMSWVRQAPGQGLEWMGGIIPKFSTSVFAQKFQGRVTITADESTSTAYMELSSLRSEDTAVYYCAKGPPVGSSSWYTDWYFDLWGRGTLVTVSS VL: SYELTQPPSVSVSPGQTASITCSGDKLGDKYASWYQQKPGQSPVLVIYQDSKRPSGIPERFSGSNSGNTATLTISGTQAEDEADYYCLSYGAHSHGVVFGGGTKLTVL", "IC50": "3.9 nM"}
